MEASUREMENT LABEL: melting point

CCNC(=O)c1ccc2c(c1)NC(=O)/C2=C(\Nc1ccc(N(CCN(C)C)S(C)(=O)=O)cc1)c1ccccc1 [(bw)] = 213 to 217 °C
COC(=O)c1ccc2c(c1)NC(=O)/C2=C(\Nc1ccc(N(C)C(=O)CN(C)C)c(OC)c1)c1ccccc1 [(w)] = 160 to 163 °C

input: Look up and state reported melting point for COC(=O)c1ccc2c(c1)NC(=O)/C2=C\Nc1ccc(N(C)C(=O)CN2CCN(C)CC2)cc1 [(cq)]
output: 203 to 207 °C

input: Look up and state reported melting point for COC(=O)c1ccc2c(c1)NC(=O)/C2=C(\Nc1ccc(CN(C)C)cc1)c1ccc(CCC(=O)O)cc1 [(az)]
output: 190 to 195 °C

input: Look up and state reported melting point for CN1CCN(Cc2ccc(N/C(=C3\C(=O)Nc4cc(C(=O)O)ccc43)c3ccccc3)cc2)CC1 [(am)]
output: 275 °C

input: Look up and state reported melting point for CN(C(=O)CN1CCOCC1)c1ccc(N/C(=C2\C(=O)Nc3cc(C(=O)O)ccc32)c2ccccc2)cc1 [(as)]
output: 237 to 238 °C

input: Look up and state reported melting point for CCNC(=O)c1ccc2c(c1)NC(=O)/C2=C(\Nc1ccc(CN(C)C)cc1)c1ccccc1 [(bz)]
output: 341 to 344 °C

input: Look up and state reported melting point for CCNC(=O)c1ccc2c(c1)NC(=O)/C2=C(\Nc1ccc(N(C)C(=O)CN2CCN(C)CC2)cc1)c1ccccc1 [(bv)]
output: 279 to 283 °C

* * *

MEASUREMENT LABEL: melting point

CN(C)CCN(C)CC(=O)N(C)c1ccc(N/C(=C2\C(=O)Nc3cc(C(=O)O)ccc32)c2ccccc2)cc1 [(at)] = 238 to 240 °C
CCN(CC)C(=O)c1ccc2c(c1)NC(=O)/C2=C(\Nc1ccc(N(C)C(=O)CN2CCN(C)CC2)cc1)c1ccccc1 [(ci)] = 195 to 198 °C
CCNC(=O)c1ccc2c(c1)NC(=O)/C2=C(\Nc1ccc(N(CCCN(C)C)C(C)=O)cc1)c1ccccc1 [(cb)] = 198 to 202 °C

input: Look up and state reported melting point for CCNC(=O)c1ccc2c(c1)NC(=O)/C2=C(\Nc1ccc(N(CCN(C)C)C(C)=O)cc1)c1ccccc1 [(ca)]
output: 266 to 270 °C

input: Look up and state reported melting point for CCNC(=O)c1ccc2c(c1)NC(=O)/C2=C\Nc1ccc(N(CCCN(C)C)C(C)=O)cc1 [(cu)]
output: 130 °C

input: Look up and state reported melting point for COC(=O)c1ccc2c(c1)NC(=O)/C2=C(\Nc1ccc(N(C)C(=O)N2CCN(C)CC2)cc1)c1ccccc1 [(ag)]
output: 205 to 208 °C

input: Look up and state reported melting point for COC(=O)c1ccc2c(c1)NC(=O)/C2=C\Nc1ccc(CN(C)C)cc1 [(cp)]
output: 234 to 238 °C

input: Look up and state reported melting point for CCNC(=O)c1ccc2c(c1)NC(=O)/C2=C(\Nc1ccc(C(=O)N2CCN(CC)CC2)cc1)c1ccccc1 [(ck)]
output: 127 to 130 °C

* * *

MEASUREMENT LABEL: melting point

# example entries with known answers
CCNC(=O)c1ccc2c(c1)NC(=O)/C2=C(\Nc1ccc(N(CCCN(C)C)S(C)(=O)=O)cc1)c1ccccc1 [(cn)] = 171 to 175 °C
CCNC(=O)c1ccc2c(c1)NC(=O)/C2=C(\Nc1ccc(OCCN(C)C)cc1)c1ccccc1 [(bu)] = 308 to 311 °C
COC(=O)c1ccc2c(c1)NC(=O)/C2=C(\Nc1ccc(N(C)C(=O)CC2CCN(C)CC2)cc1)c1ccccc1 [(ad)] = 190 to 193 °C
COC(=O)c1ccc2c(c1)NC(=O)/C2=C(\Nc1ccc(NC(=O)CN2CCN(C)CC2)c(C)c1C)c1ccccc1 [(ae)] = 254 to 257 °C
COC(=O)c1ccc2c(c1)NC(=O)/C2=C(\Nc1ccc(-c2nccn2C)cc1)c1cccc(CCC(=O)O)c1 [(ay)] = 184 to 190 °C
COC(=O)c1ccc2c(c1)NC(=O)/C2=C(\Nc1ccc(N(C)C(=O)CN(C)C)c(C#N)c1)c1ccccc1 [(v)] = 163 to 165 °C
CCNC(=O)c1ccc2c(c1)NC(=O)/C2=C\Nc1ccc(CN2CCCCC2)cc1 [(ct)] = 245 to 248 °C
COC(=O)c1ccc2c(c1)NC(=O)/C2=C(\Nc1ccc(CN(C)C)cc1)c1cccc(CCC(=O)O)c1 [(aw)] = 163 to 167 °C
O=C1Nc2cc(C(=O)O)ccc2/C1=C(/Nc1ccc(CN2CCOCC2)cc1)c1ccccc1 [(ao)] = 335 °C
COC(=O)c1ccc2c(c1)NC(=O)/C2=C(\Nc1ccc(N(C)C(=O)C(N)(CCO)CCO)cc1)c1ccccc1 [(z)] = 199 to 202 °C

input: Look up and state reported melting point for CN(C)CCN(c1ccc(N/C(=C2\C(=O)Nc3cc(C(=O)O)ccc32)c2ccccc2)cc1)S(C)(=O)=O [(ap)]
output: 280 °C

input: Look up and state reported melting point for COC(=O)c1ccc2c(c1)NC(=O)/C2=C(\Nc1ccc(N(C)C(=O)NCCCN(C)C)cc1)c1ccccc1 [(ai)]
output: 166 to 170 °C
